Give solubility for every item shown.
test: Solubility measurement at pH 7.4
Type: physicochemical
condition_set: aqueous buffer, thermodynamic from solid; phosphate buffer pH 7.4, room temperature; read-out: Solubility @ pH 7.4

Here are 2 compounds together with their reported answers.
>  <compound>
CC(C)(C)/[N+]([O-])=C/c1ccc(C(N)=O)cc1 [Compound 19]

>  <solubility>
14.2 mM

$$$$
>  <compound>
CN1CCN(S(=O)(=O)c2ccccc2/C=[N+](\[O-])C2CCCCC2)CC1 [Compound 39]

>  <solubility>
> 2.63 mM

$$$$

As a next step, examine the compound that follows.
solubility for O=S(=O)(c1ccccc1/C=[N+](\[O-])Cc1ccccc1)N1CCOCC1 [Compound 37] is 5.02 mM

---

Could you please report measured % of Nitrone Remaining at 30 min (Human) for the items listed next?
test: Microsomal stability in human liver microsomes
Assay type: in vitro ADME
condition_set: NADPH, 37° C.

Answered examples (3):
>  <compound>
CC(C)(C)NS(=O)(=O)c1ccc(/C=[N+](\[O-])Cc2ccccc2)cc1 [Compound 61]

>  <% of Nitrone Remaining at 30 min (Human)>
95%

$$$$
>  <compound>
CC(C)/[N+]([O-])=C/c1ccc(S(=O)(=O)NC(C)(C)C)cc1 [Compound 59]

>  <% of Nitrone Remaining at 30 min (Human)>
100%

$$$$
>  <compound>
O=S(=O)(c1ccccc1/C=[N+](\[O-])C1CCCCC1)N1CCOCC1 [Compound 36]

>  <% of Nitrone Remaining at 30 min (Human)>
24.2%

$$$$

Next item in the queue.
Consider CS(=O)(=O)c1ccc(/C=[N+](\[O-])Cc2ccccc2)cn1 [Compound 81] . Its measured % of Nitrone Remaining at 30 min (Human) is 90.5%

---

test: Pharmacokinetic evaluation following intravenous and oral administration in rats
Assay type: in vivo
condition_set: male, Sprague-Dawley, plasma, 1 mg/kg; rat; intravenous administration, 1 mg/mL at 1.0 mL/kg; read-out: Vd (volume of distribution)
Outcome: MET for Vd of at least 0.6 L/kg; NOT MET for anything lower.

A selection of reference data follows.
>  <compound>
CC(C)(C)NC(=O)c1ccc(/C=[N+](\[O-])C(C)(C)C)cc1 [Compound 18]

>  <group>
MET

$$$$
>  <compound>
CC(C)(C)/[N+]([O-])=C/c1ccc(S(N)(=O)=O)cc1 [Compound 20]

>  <group>
MET

$$$$
>  <compound>
CC(C)(C)/[N+]([O-])=C/c1ccc(C(F)(F)F)cc1S(C)(=O)=O [Compound 72]

>  <group>
MET

$$$$
>  <compound>
CCS(=O)(=O)c1ccc(/C=[N+](\[O-])C(C)(C)C)cc1 [Compound 67]

>  <group>
NOT MET

$$$$

Then there is this compound:
Task: Textbook exercise: given the entry CC(C)(C)/[N+]([O-])=C/c1ccccc1S(=O)(=O)N1CCCCC1 [Compound 33] , state whether its Vd is greater than or equal to 0.6 L/kg.
Result: MET

---

Tested on: CCI rats
test: Mechanical allodynia in mononeuropathic pain model (chronic constrictive injury, CCI, Bennett model)
Format: in vivo, SD rats
condition_set: post-dosing time 30 min, 50 mg/kg p.o. single dose, mean ± SEM
measured_quantity: PWT ipsilateral hind paw (von Frey) (gm)
Give bare numbers, in gm.

Please review the following examples before continuing.
>  <molecule>
CC(C)(C)/[N+]([O-])=C/c1ccc(S(C)(=O)=O)cc1S(C)(=O)=O [Compound 63]

>  <PWT ipsilateral hind paw (von Frey) [gm]>
18.4

$$$$
>  <molecule>
CC(C)(C)/[N+]([O-])=C/c1ccc(S(=O)(=O)N2CCOCC2)cc1 [Compound 23]

>  <PWT ipsilateral hind paw (von Frey) [gm]>
7.67

$$$$
>  <molecule>
CC(C)(C)/[N+]([O-])=C/c1ccccc1S(C)(=O)=O [Compound 66]

>  <PWT ipsilateral hind paw (von Frey) [gm]>
5.33

$$$$

# next molecule below
Readout PWT ipsilateral hind paw (von Frey) for CC1(C)CC(O)CC(C)(C)N1[O] [TEMPOL, 4-hydroxy-tempol, reference compound] , test system CCI rats, was 4.80

---

For each of the compounds below, state its bioavailability.
test: Pharmacokinetic evaluation following intravenous and oral administration in rats
Format: in vivo
condition_set: male, Sprague-Dawley, plasma, 5 mg/kg; rat; po 2 mg/mL at 2.5 mL/kg vs iv 1 mg/mL at 1.0 mL/kg, dose-normalized; read-out: F (%) oral bioavailability
Numbers only, in %.

Recorded bioavailability, per entry:
>  <compound>
CCS(=O)(=O)c1ccccc1/C=[N+](\[O-])C(C)(C)C [Compound 68]

>  <readout_value>
36.4

$$$$
>  <compound>
CCN(CC)S(=O)(=O)c1ccccc1/C=[N+](\[O-])C(C)(C)C [Compound 30]

>  <readout_value>
1.7

$$$$

I have 3 compounds here; please give me bioavailability for each one.
1. CN1CCN(S(=O)(=O)c2ccc(/C=[N+](\[O-])C(C)(C)C)cc2)CC1 [Compound 22]
2. CC(C)(C)/[N+]([O-])=C/c1cc2ccccc2nc1S(C)(=O)=O [Compound 74]
3. CC(C)(C)NS(=O)(=O)c1ccccc1/C=[N+](\[O-])C(C)(C)C [Compound 48]

Result:
1. 15.6
2. 9.4
3. 55.3

---

test: Pharmacokinetic evaluation following intravenous and oral administration in rats
Assay type: in vivo
condition_set: male, Sprague-Dawley, plasma, 1 mg/kg; rat; intravenous administration, 1 mg/mL at 1.0 mL/kg; read-out: CI (clearance) (converted)
measured_quantity: log10(clearance) (log10 of the value in mL/min/kg)
Scale type: logarithmic (base 10). Underlying clearance unit: mL/min/kg.

>  <smiles_structure>
CC(C)(C)/[N+]([O-])=C/c1ccccc1S(C)(=O)=O

>  <readout_value>
0.48

$$$$
>  <smiles_structure>
CC(C)S(=O)(=O)c1ccc(/C=[N+](\[O-])C(C)(C)C)cc1

>  <readout_value>
1.30

$$$$
>  <smiles_structure>
CC(C)(C)/[N+]([O-])=C/c1ccc(S(=O)(=O)Nc2ccc(F)cc2)cc1

>  <readout_value>
1.47

$$$$
>  <smiles_structure>
CN1CCN(S(=O)(=O)c2ccc(/C=[N+](\[O-])C(C)(C)C)cc2)CC1

>  <readout_value>
1.57

$$$$
>  <smiles_structure>
CC(C)(C)/[N+]([O-])=C/c1ccc(S(=O)(=O)C2CCCC2)cc1

>  <readout_value>
1.49

$$$$

Would you mind listing log10(clearance) for each of the following compounds?
1. CC(C)(C)/[N+]([O-])=C/c1ccc(S(C)(=O)=O)nc1
2. CC(C)S(=O)(=O)c1ccc(/C=[N+](\[O-])C(C)(C)C)c(S(=O)(=O)C(C)C)c1
3. CC(C)(C)/[N+]([O-])=C/c1ccc(S(=O)(=O)Nc2cccnc2)cc1
4. CCN(CC)S(=O)(=O)c1ccccc1/C=[N+](\[O-])C(C)(C)C
5. CN(c1ccccc1)S(=O)(=O)c1ccc(/C=[N+](\[O-])C(C)(C)C)cc1

Result:
0.54
1.50
-0.78
1.97
1.55

---

test: Pharmacokinetic evaluation following intravenous and oral administration in rats
Format: in vivo
condition_set: male, Sprague-Dawley, plasma, 1 mg/kg; rat; intravenous administration, 1 mg/mL at 1.0 mL/kg; read-out: Vd (volume of distribution)
Think of 0.8 L/kg as a floor: if Vd stands on it or above, it is Criterion met; beneath it, Criterion not met.

>  <smiles_structure>
CC(C)(C)/[N+]([O-])=C/c1ccc(S(=O)(=O)Nc2cccnc2)cc1

>  <group>
Criterion not met

$$$$
>  <smiles_structure>
CC(C)S(=O)(=O)c1ccc(/C=[N+](\[O-])C(C)(C)C)cc1

>  <group>
Criterion met

$$$$

Task: Confirm if Vd reported for the compound CC(C)(C)/[N+]([O-])=C/c1ccc(C(=O)O)cc1 is 0.8 L/kg or above.
Result: Criterion not met

Task: Is reported Vd greater than or equal to 0.8 L/kg here: CC(C)(C)/[N+]([O-])=C/c1ccccc1S(C)(=O)=O
Result: Criterion not met

Task: Vd >= 0.8 L/kg for CC(C)(C)NS(=O)(=O)c1ccc(/C=[N+](\[O-])C2CCCCC2)cc1 ?
Result: Criterion met

Task: Is reported Vd greater than or equal to 0.8 L/kg here: CS(=O)(=O)c1ncccc1/C=[N+](\[O-])Cc1ccccc1
Result: Criterion met

Task: Would you say CC(C)(C)/[N+]([O-])=C/c1ccc(S(=O)(=O)N2CCOCC2)cc1 shows Vd at minimum 0.8 L/kg?
Result: Criterion met

---

test: Solubility measurement at pH 7.4
Assay type: physicochemical
condition_set: aqueous buffer, thermodynamic from solid; phosphate buffer pH 7.4, room temperature; read-out: Solubility @ pH 7.4
Could you please report measured solubility for the items listed next?

Example entries begin here.
>  <compound>
CCN(CC)S(=O)(=O)c1ccccc1/C=[N+](\[O-])C(C)(C)C [Compound 30]

>  <solubility>
2530 µM

$$$$
>  <compound>
CC(C)(C)/[N+]([O-])=C/c1cccnc1S(C)(=O)=O [Compound 73]

>  <solubility>
> 11300 µM

$$$$
>  <compound>
CN(c1ccccc1)S(=O)(=O)c1ccccc1/C=[N+](\[O-])C(C)(C)C [Compound 41]

>  <solubility>
413 µM

$$$$
>  <compound>
CN1CCN(S(=O)(=O)c2ccccc2/C=[N+](\[O-])Cc2ccccc2)CC1 [Compound 40]

>  <solubility>
> 2280 µM

$$$$
>  <compound>
CC(C)(C)/[N+]([O-])=C/c1cc2ccccc2nc1S(C)(=O)=O [Compound 74]

>  <solubility>
96 µM

$$$$

Please go through the list and note solubility for each compound.
1. CS(=O)(=O)c1ncccc1/C=[N+](\[O-])C1CCCCC1 [Compound 76]
2. CCN(CC)S(=O)(=O)c1ccccc1/C=[N+](\[O-])C1CCCCC1 [Compound 31]
3. O=S(=O)(c1ccccc1/C=[N+](\[O-])C1CCCCC1)N1CCOCC1 [Compound 36]
4. O=S(=O)(c1ccccc1/C=[N+](\[O-])C1CCCCC1)N1CCCc2ccccc21 [Compound 45]
5. CC(C)(C)NC(=O)c1ccc(/C=[N+](\[O-])C(C)(C)C)cc1 [Compound 18]
6. O=S(=O)(c1ccccc1/C=[N+](\[O-])Cc1ccccc1)N1CCCCC1 [Compound 35]

Result:
["> 4070 µM", "2890 µM", "584 µM", "3.5 µM", "1360 µM", "107 µM"]

Could you tell me solubility for each of these compounds? They are listed below.
1. CS(=O)(=O)c1ncccc1/C=[N+](\[O-])Cc1ccccc1 [Compound 75]
2. O=S(=O)(c1ccccc1/C=[N+](\[O-])C1CCCCC1)N1CCCCC1 [Compound 34]
3. CC(C)(C)/[N+]([O-])=C/c1ccc(C(=O)O)cc1 [Compound 13, N-tert-Butyl-C-(4-carboxy-phenyl)nitrone]
4. CC(C)(C)/[N+]([O-])=C/c1ccccc1S(=O)(=O)N1CCCc2ccccc21 [Compound 44]
5. CN1CCN(S(=O)(=O)c2ccccc2/C=[N+](\[O-])C(C)(C)C)CC1 [Compound 38]
6. CC(C)(C)/[N+]([O-])=C/c1ccccc1S(=O)(=O)N1CCCCC1 [Compound 33]

Result:
1: 2920 µM; 2: 1420 µM; 3: 9040 µM; 4: 156 µM; 5: > 1860 µM; 6: > 3330 µM

Short answer for O=S(=O)(c1ccccc1/C=[N+](\[O-])Cc1ccccc1)N1CCCc2ccccc21 [Compound 46] : solubility was 5.26 µM

Hello, the source for this data is patent US20100168112A1, in case you need it.
